- measurement_context: 298.15 K; 101.33 kPa; Liquid; Vibrating tube method
Mark criterion met for reported mass density of 900 kg/m3 or greater; mark criterion not met for anything smaller.

- COC(=O)OC [dimethyl carbonate]: criterion met
- CCc1ccccc1: criterion not met
- Cc1cccc(C)c1: criterion not met
- Cc1ccc(C)cc1: criterion not met
- CCOC(=O)c1ccccc1 [ethyl benzoate]: criterion met

Attribution: the NIST ThermoML archive (doi:10.1021/je020120h)
